Origin of the recorded values: the supplement of paper PMC4862054

# normalised response values compiled below
# Tested on: DU-4475
# ASSAY_REMARKS: normalised response (% of control), CellTox Green; higher = less cell death (100 = DMSO, 0 = benzethonium chloride kill control)
# CONDITION: incubation time: 72 h
OBSERVATION_TYPE: normalised response (%)

compound="CC(O)(CS(=O)(=O)c1ccc(F)cc1)C(=O)Nc1ccc(C#N)c(C(F)(F)F)c1 (centres undefined) [Bicalutamide] (10000 nM)" unit_label=% reported=104
compound="Cc1nc(C(=O)NCC(=O)O)c(O)c2ccc(Oc3ccccc3)cc12 [FG-4592] (10000 nM)" unit_label=% reported=97.7
compound="CC(C)(C)c1nc(-c2cccc(NS(=O)(=O)c3c(F)cccc3F)c2F)c(-c2ccnc(N)n2)s1 [Dabrafenib] (2500 nM)" unit_label=% reported=70.1
compound="COc1cc(Nc2c(C#N)cnc3cc(OCCCN4CCN(C)CC4)c(OC)cc23)c(Cl)cc1Cl [Bosutinib] (100 nM)" unit_label=% reported=109
compound="O=C(CCCCCCC(=O)Nc1ccccc1)NO [Vorinostat] (100 nM)" unit_label=% reported=97.7
compound="O=C(CCCCCCC(=O)Nc1ccccc1)NO [Vorinostat] (10000 nM)" unit_label=% reported=76
compound="Nc1ccn([C@@H]2O[C@H](CO)[C@@H](O)C2(F)F)c(=O)n1 [Gemcitabine] (10 nM)" unit_label=% reported=101
compound="CO[C@@H]1[C@H](N(C)C(=O)c2ccccc2)C[C@H]2O[C@]1(C)n1c3ccccc3c3c4c(c5c6ccccc6n2c5c31)C(=O)NC4 [Midostaurin] (1000 nM)" unit_label=% reported=87.7
compound="CN[C@@H](C)C(=O)N[C@H]1CN(C(=O)CC(C)C)CC[C@H]2CC[C@@H](C(=O)NC(c3ccccc3)c3ccccc3)N2C1=O [AT-406] (1000 nM)" unit_label=% reported=101
compound="CC(C)(C)c1nc(-c2cccc(NS(=O)(=O)c3c(F)cccc3F)c2F)c(-c2ccnc(N)n2)s1 [Dabrafenib] (250 nM)" unit_label=% reported=83
compound="CCNC(=O)CCC/C=C\\C[C@@H]1[C@@H](/C=C/[C@@H](O)CCc2ccccc2)[C@H](O)C[C@@H]1O [Bimatoprost] (55 nM)" unit_label=% reported=96.9
compound="CC(=O)[C@]1(O)Cc2c(O)c3c(c(O)c2[C@@H](O[C@H]2C[C@H](N)[C@H](O)[C@H](C)O2)C1)C(=O)c1ccccc1C3=O [Idarubicin] (1000 nM)" unit_label=% reported=81.7
compound="CCn1c(C(=O)N(C2CC2)C2CC2)cc2c3c(ncn3C)c(Nc3cc(C)n(C)n3)nc21 (10000 nM)" unit_label=% reported=98.5
compound="C/C(=C\\c1csc(C)n1)[C@@H]1C[C@@H]2O[C@]2(C)CCC[C@H](C)[C@H](O)[C@@H](C)C(=O)C(C)(C)[C@@H](O)CC(=O)N1 [Ixabepilone] (10 nM)" unit_label=% reported=104

====

# EC50, CellTiter-Blue viability values compiled below
# System: SK-BR-3
# CONDITION: 72 h
OBSERVATION_TYPE: EC50, CellTiter-Blue viability (nM)

molecule="CCNC(=O)c1noc(-c2cc(C(C)C)c(O)cc2O)c1-c1ccc(CN2CCOCC2)cc1 [NVP-AUY922]" unit_label=nM reported=6.13
molecule="C=CCn1c(=O)c2cnc(Nc3ccc(N4CCN(C)CC4)cc3)nc2n1-c1cccc(C(C)(C)O)n1 [MK1775]" unit_label=nM reported=120
molecule="Cn1cc(C2=C(c3cn(C4CCN(Cc5ccccn5)CC4)c4ccccc34)C(=O)NC2=O)c2ccccc21 [Enzastaurin]" unit_label=nM reported=667
